# Procedure Details: yeast TOR pathway reporter LAP4-GFP change – cell-based, cherry picks, flow cytometry, mother/daughter gates, confirmation (AID 2271);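 further: ratio of sample to DMSO plate mean so 100% equals DMSO level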
# Settings: S. cerevisiae LAP4-GFP strain, 3 h, measured here: daughter cell gate response, at 10 µM, stronger effect = higher value, 100 means same as DMSO control
Listed next: entries and their corresponding GFP response relative to DMSO.
Please reply with the bare figure in % and do not write the unit itself.

Study these solved cases before continuing.
>  <Compound>
CC(=O)O[C@]1(C(C)=O)CC[C@H]2[C@@H]3C[C@H](C)C4=CC(=O)CC[C@]4(C)[C@H]3CC[C@@]21C

>  <Measured Endpoint>
GFP response relative to DMSO

>  <Measured Value>
97.9

$$$$
>  <Compound>
COC(=O)n1c(=S)oc2cc(Cl)ccc21

>  <Measured Endpoint>
GFP response relative to DMSO

>  <Measured Value>
105

$$$$

Requested read-out: GFP response relative to DMSO. Entry: "C[C@]12CCC(=O)C=C1CC[C@@H]1[C@@H]2[C@@H](O)C[C@@]2(C)[C@H]1CC[C@]2(O)C(=O)CO"
98.7

Requested read-out: GFP response relative to DMSO. Entry: "O=c1[nH]cc(F)c(=O)[nH]1"
88.8

Requested read-out: GFP response relative to DMSO. Entry: "COC(=O)c1ccc2nc(Nc3nc4c(F)cc(F)cc4s3)sc2c1"
90.4

====

# Study System: Cell division control protein 42 homolog (Homo sapiens)
# Procedure Details: inhibition of fluorescent GTP binding to wildtype Cdc42 – biochemical, multiplex bead flow cytometry, Bodipy-FL-GTP, dose response (AID 1334)
# Settings: bead-based flow cytometry, Bodipy-FL-GTP binding to GST-Cdc42; at 100 µM (top of the series) unless noted
Potency and affinity values are given separately.
// boundary case: fluorescence, percent of control (lower = inhibition) equal to 50% maps to false; strictly smaller maps to true

Record excerpt, results attached:
>  <Molecule>
O=C(O)c1ccccc1NCc1ccc2c(c1)OCO2

>  <Study System>
Cell division control protein 42 homolog (Homo sapiens)

>  <Class Assignment>
false

$$$$
>  <Molecule>
O=c1c2c(-c3ccccc3)csc2nc2c3ccccc3c(NCCN3CCOCC3)nn12

>  <Study System>
Cell division control protein 42 homolog (Homo sapiens)

>  <Class Assignment>
true

$$$$
>  <Molecule>
CC1Cc2ccccc2N1S(=O)(=O)c1cccc(C(=O)NCCCO)c1 (stereo unspecified)

>  <Study System>
Cell division control protein 42 homolog (Homo sapiens)

>  <Class Assignment>
true

$$$$
>  <Molecule>
CCCCOC(=O)c1cccnc1SCCc1ccccc1

>  <Study System>
Cell division control protein 42 homolog (Homo sapiens)

>  <Class Assignment>
true

$$$$

Next molecule, please.
I wonder whether "O=C(O)Cc1coc2cc3c(cc12)CCC3" has fluorescence, percent of control (lower = inhibition) below 50%. Can you tell?
true

====

# Study System: Integrin beta-1 (Homo sapiens) + Integrin alpha-4 (Homo sapiens) (UniProt P13612+P05556)
# Sequence (P05556 whole entry, looked up): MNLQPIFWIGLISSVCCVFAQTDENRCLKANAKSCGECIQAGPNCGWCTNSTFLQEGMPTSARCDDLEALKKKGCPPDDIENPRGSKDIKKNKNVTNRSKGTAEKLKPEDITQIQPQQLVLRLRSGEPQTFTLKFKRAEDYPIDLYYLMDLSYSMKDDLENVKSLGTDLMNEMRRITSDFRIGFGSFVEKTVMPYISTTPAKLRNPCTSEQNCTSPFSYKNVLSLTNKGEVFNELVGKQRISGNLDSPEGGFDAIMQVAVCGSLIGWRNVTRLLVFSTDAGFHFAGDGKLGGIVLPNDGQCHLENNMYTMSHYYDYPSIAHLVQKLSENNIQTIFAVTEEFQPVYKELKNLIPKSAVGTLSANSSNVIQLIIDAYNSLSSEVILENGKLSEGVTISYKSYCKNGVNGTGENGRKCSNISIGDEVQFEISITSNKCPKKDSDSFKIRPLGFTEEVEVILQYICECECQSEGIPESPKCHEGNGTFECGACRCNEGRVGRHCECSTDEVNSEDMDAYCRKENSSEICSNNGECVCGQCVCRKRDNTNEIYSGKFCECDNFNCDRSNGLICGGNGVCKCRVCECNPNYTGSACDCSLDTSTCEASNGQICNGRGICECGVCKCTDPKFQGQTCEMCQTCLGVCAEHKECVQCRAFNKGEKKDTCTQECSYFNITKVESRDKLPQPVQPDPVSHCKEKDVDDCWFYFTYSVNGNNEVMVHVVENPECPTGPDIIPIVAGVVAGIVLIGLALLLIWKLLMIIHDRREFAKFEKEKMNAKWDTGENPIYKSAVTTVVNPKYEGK
# Sequence (P13612 whole entry, looked up): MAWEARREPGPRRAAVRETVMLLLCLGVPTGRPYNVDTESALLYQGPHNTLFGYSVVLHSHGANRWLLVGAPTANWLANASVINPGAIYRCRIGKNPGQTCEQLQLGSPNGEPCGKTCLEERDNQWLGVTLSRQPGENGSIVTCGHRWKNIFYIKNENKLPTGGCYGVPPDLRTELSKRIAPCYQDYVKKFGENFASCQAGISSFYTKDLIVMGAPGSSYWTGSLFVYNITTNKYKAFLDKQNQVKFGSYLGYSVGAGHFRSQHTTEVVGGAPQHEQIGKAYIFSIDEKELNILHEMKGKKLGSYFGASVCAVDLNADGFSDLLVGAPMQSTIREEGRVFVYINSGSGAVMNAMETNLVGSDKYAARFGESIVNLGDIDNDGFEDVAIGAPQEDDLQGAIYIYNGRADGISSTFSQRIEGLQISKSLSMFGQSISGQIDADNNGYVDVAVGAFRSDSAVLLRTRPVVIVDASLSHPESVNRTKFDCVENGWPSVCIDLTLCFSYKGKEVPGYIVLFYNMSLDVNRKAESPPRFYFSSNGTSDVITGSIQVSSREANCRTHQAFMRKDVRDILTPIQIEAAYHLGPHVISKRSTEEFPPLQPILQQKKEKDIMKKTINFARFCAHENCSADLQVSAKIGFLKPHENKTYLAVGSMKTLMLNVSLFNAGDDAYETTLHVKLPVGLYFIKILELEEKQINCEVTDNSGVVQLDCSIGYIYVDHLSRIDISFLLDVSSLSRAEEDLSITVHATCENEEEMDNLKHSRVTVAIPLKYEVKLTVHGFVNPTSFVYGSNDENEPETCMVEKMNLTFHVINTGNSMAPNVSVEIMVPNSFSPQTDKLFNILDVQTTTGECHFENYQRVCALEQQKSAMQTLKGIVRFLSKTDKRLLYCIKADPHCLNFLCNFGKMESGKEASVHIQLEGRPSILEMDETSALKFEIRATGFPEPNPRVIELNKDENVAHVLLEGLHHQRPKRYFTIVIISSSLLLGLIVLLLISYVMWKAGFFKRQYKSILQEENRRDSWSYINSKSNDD
# Procedure Details: alpha4beta1 integrin LIBS antibody binding reduction – U937 cells, HUTS-21 mAb, flow cytometry, validation set, VLA-4 allosteric modulator project, pilot screen (AID 2674);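 further: antibody binding induced by the VLA-4 ligand LDV present at three times its Kd; 0% = LDV ligand with antibody and no compound and 100% = antibody without LDV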
# Settings: HUTS-21 LIBS mAb binding, at 6.7 µM, stronger effect = higher value, binding induced by LDV ligand
Listed next: entries and their corresponding inhibition.
Please reply with the bare figure in % and do not write the unit itself.

>  <Compound>
Cc1ccc2c(c1)c1c3n2CCCN(Cc2ccccc2)C3CCC1 (configuration not stated)

>  <inhibition / %>
-27.7

$$$$
>  <Compound>
O=C(O)CP(=O)(O)O

>  <inhibition / %>
11

$$$$
>  <Compound>
CN1CCCN=C1COC(=O)C(O)(c1ccccc1)C1CCCCC1 (configuration not stated)

>  <inhibition / %>
7.85

$$$$

Requested read-out: inhibition. Entry: "COc1cc(NC(=O)COc2ccccc2)c(OC)cc1NC(C)=O"
-14.9

Requested read-out: inhibition. Entry: "C[C@]12CC[C@@H]3c4ccc(O)cc4CC[C@H]3[C@@H]1C[C@@H](O)[C@@H]2O[C@@H]1O[C@H](C(=O)O)[C@@H](O)[C@H](O)[C@H]1O"
-10

====

# Procedure Details: AML differentiation inducers, ER-HoxA9 marrow cells – cell-based, GFP/MAC1 double positive, flow cytometry, validation set, primary screen (AID 588685);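 further: compound exposure lasts four days before antibody staining and flow analysis; 0% = DMSO wells and 100% = 5 µM fulvestrant positive control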
# Settings: stronger effect = higher value, normalized: vehicle 0, fulvestrant 100
Listed next: entries and their corresponding differentiation response.
Please reply with the bare figure in % and do not write the unit itself.

Study these solved cases before continuing.
>  <Molecule>
CN1[C@@H]2CC[C@H]1CC(OC(=O)C(CO)c1ccccc1)C2 (stereo not given in full)

>  <differentiation response, %>
-13.3

$$$$
>  <Molecule>
CC(C)(CO)CNC(=O)CC1C(=O)NCCN1CC(c1ccccc1)c1ccccc1 (stereo not given)

>  <differentiation response, %>
-8.8

$$$$
>  <Molecule>
CCNC1=C(Cl)C(=O)c2ccccc2C1=O

>  <differentiation response, %>
0.92

$$$$

Requested read-out: differentiation response. Entry: CCc1cccc2c3c([nH]c12)C(CC)(CC(=O)O)OCC3 (stereo not given)
3.18

Requested read-out: differentiation response. Entry: "COc1ccc2cc(C(=O)OC(C)C)sc(=O)c2c1OC"
11.8

Requested read-out: differentiation response. Entry: "Cn1c(=O)c2nc3ccccc3nc2n(C)c1=O"
-12

Requested read-out: differentiation response. Entry: Cc1ccc(C2CC(=O)C(C=NCCN3CCN(CC(=O)Nc4cc(C)cc(C)c4)CC3)=C(O)C2)cc1 (stereo not given)
-16.3

Requested read-out: differentiation response. Entry: COc1cccc(CC2CC(=O)N(c3ccc4c(C)cc(=O)oc4c3)C2=O)c1 (stereo not given)
39.2

Requested read-out: differentiation response. Entry: "CCOC(=O)N1CCN(Cc2nc(Cc3cccc(F)c3)no2)CC1"
4.15

Requested read-out: differentiation response. Entry: "C[C@]12C[C@H](O)[C@H]3[C@@H](CCC4=CC(=O)CC[C@@]43C)[C@@H]1CC[C@@H]2C(=O)CO"
4.91

====

# Procedure Details: calorie-restriction mimetic ROS inhibitors, yeast – validation compound set, pilot screen (AID 2706);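 further: yeast exposed to compound for one week at 30 degrees C before staining; 100% = mean of all compound wells on the same plate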
# Settings: S. cerevisiae aging, superoxide DHE fluorescence; at 10 µM; stronger effect = lower value
Listed next: entries and their corresponding superoxide response (% of plate).
Please reply with the bare figure in % and do not write the unit itself.

Study these solved cases before continuing.
>  <Compound>
O=C(CCC1CCCN(C(=O)c2ccsc2)C1)NCc1ccc(F)c(F)c1 (stereo not given)

>  <Measured Value>
102

$$$$
>  <Compound>
O=C(Oc1ccc2c3c(c(=O)oc2c1)CCCC3)c1ccco1

>  <Measured Value>
99.3

$$$$
>  <Compound>
O=C(c1cccc2ccccc12)C1CCCN(C(=O)CCN2CCCO2)C1 (stereo not given)

>  <Measured Value>
90.5

$$$$
>  <Compound>
Cc1cc(C)c(NC(=O)NC(=O)C(Cl)(Cl)Cl)c(C)c1

>  <Measured Value>
97.8

$$$$
>  <Compound>
COc1cc2c(cc1OC)C(c1ccc(-c3cc(Cl)ccc3Cl)o1)=NCC2

>  <Measured Value>
97.5

$$$$

Requested read-out: superoxide response (% of plate). Entry: NC(CO)C(=O)NNCc1ccc(O)c(O)c1O (stereo not given)
92.9

Requested read-out: superoxide response (% of plate). Entry: "CC1(C)CC(=O)c2c(nc3ccccc3c2N)C1"
89.8

Requested read-out: superoxide response (% of plate). Entry: CC12CC(c3ccccc3O1)C(C(=O)N1CCOCC1)C(=O)N2 (stereo not given)
107

Requested read-out: superoxide response (% of plate). Entry: "OC(CCN1CCCCC1)(c1ccccc1)c1ccccc1"
107

====

# Study System: Beta-adrenergic receptor kinase 1 (Homo sapiens) (UniProt P25098)
# Sequence (P25098 whole entry, looked up): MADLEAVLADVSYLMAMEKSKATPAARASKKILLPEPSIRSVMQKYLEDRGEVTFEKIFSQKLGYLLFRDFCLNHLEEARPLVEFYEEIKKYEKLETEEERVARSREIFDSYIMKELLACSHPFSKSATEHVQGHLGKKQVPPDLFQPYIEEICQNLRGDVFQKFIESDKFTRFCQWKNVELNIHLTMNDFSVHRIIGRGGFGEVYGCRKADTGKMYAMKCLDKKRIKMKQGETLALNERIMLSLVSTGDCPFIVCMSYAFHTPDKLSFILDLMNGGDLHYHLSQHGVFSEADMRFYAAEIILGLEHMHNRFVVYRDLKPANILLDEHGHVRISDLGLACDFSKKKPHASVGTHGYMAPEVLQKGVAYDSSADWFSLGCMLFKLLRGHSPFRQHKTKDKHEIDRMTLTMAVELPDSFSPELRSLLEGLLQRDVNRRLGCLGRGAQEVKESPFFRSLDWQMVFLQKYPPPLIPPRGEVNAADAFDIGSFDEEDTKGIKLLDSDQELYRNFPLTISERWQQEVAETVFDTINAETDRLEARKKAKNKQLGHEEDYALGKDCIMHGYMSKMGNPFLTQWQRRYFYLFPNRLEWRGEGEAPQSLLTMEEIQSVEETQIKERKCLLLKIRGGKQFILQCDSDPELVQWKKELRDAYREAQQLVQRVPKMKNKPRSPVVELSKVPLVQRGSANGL
# Procedure Details: GRK2 binders displacing RNA aptamer, biochemical, validation, human GRK2, bead flow cytometry (AID 488806)
# Settings: bead-bound GRK2, FAM-aptamer displacement, at 10 µM, stronger effect = higher value
Listed next: entries and their corresponding aptamer binding inhibition.
Please reply with the bare figure in % and do not write the unit itself.

Study these solved cases before continuing.
>  <Compound>
O=C(O)c1ccc(OCCn2ccnc2)cc1

>  <aptamer binding inhibition, %>
-2

$$$$
>  <Compound>
CC(=O)[C@H]1CC[C@H]2[C@@H]3C[C@H](C)C4=CC(=O)CC[C@]4(C)[C@H]3[C@@H](O)C[C@]12C

>  <aptamer binding inhibition, %>
8

$$$$
>  <Compound>
CC(=O)NC1C(OCc2ccccc2)OC(COC(C)=O)C(OC(C)=O)C1OC(C)=O (configuration not stated)

>  <aptamer binding inhibition, %>
2

$$$$
>  <Compound>
COc1ccc(CNCCC(c2ccc(F)cc2)c2ccc(OC(C)C)cc2)cc1OC (configuration not stated)

>  <aptamer binding inhibition, %>
-14

$$$$
>  <Compound>
CC(C)(C)OC(=O)COc1cc(OCC(=O)OC(C)(C)C)c2c(=O)cc(-c3ccccc3)oc2c1

>  <aptamer binding inhibition, %>
1

$$$$

Request: aptamer binding inhibition, test system Beta-adrenergic receptor kinase 1 (Homo sapiens) (UniProt P25098), entry CC1CCc2cc(F)cc3c(=O)c(C(=O)O)cn1c23 (configuration not stated)
0

Request: aptamer binding inhibition, test system Beta-adrenergic receptor kinase 1 (Homo sapiens) (UniProt P25098), entry "COc1ccccc1OS(=O)(=O)c1ccc(NC(C)=O)cc1"
2

Request: aptamer binding inhibition, test system Beta-adrenergic receptor kinase 1 (Homo sapiens) (UniProt P25098), entry "CC1(C)CC(=O)c2cnc(NC(=O)C3CCCC3)nc2C1"
6

Request: aptamer binding inhibition, test system Beta-adrenergic receptor kinase 1 (Homo sapiens) (UniProt P25098), entry "COc1cc2c(cc1OC)C(=S)NC(C)(C)C2"
0

Request: aptamer binding inhibition, test system Beta-adrenergic receptor kinase 1 (Homo sapiens) (UniProt P25098), entry "NC(N)=NC(N)=NCCc1ccccc1"
0

Request: aptamer binding inhibition, test system Beta-adrenergic receptor kinase 1 (Homo sapiens) (UniProt P25098), entry "C=C(C)[C@@H]1CC=C(CN2CCC(N3CCC(C(=O)N4CCCC4)CC3)CC2)CC1"
-18
